Assay: Delivery vehicle size and polydispersity by dynamic light scattering
Assay type: physicochemical
Conditions: formulation recipe F2
Non-standard residues stand in square brackets, D forms with d. Residues, ends and D or L forms follow the SMILES beside them. *: point of attachment. Gly(N-(3-decanoyloxypropyl)) = CCCCCCCCCC(=O)OCCCNCC(=O)O; N(2-decanoyloxyethyl)Gly = CCCCCCCCCC(=O)OCCNCC(=O)O; Gly(N-(CH2)3O-octanoyl) = CCCCCCCC(=O)OCCCNCC(=O)O; Gly(N-3-morpholinopropyl) = O=C(O)CNCCCN1CCOCC1; N(2-ethylhexyl)Gly = CCCCC(CC)CNCC(=O)O; Gly(N-dodecyl) = CCCCCCCCCCCCNCC(=O)O; N(CH(CH2OH)2)Gly = O=C(O)CNC(CO)CO; NHexGly = CCCCCCNCC(=O)O; For = O=C*
Kindly supply the reported Particle Size values for the records listed here.
Numbers only, in nm.

Could you report Particle Size for every entry in the following list?
1. CCCCCCCCCC(=O)OCCN(CC(=O)N(CCOC(=O)CCCCCCCCC)CC(=O)N(CC(=O)N(CCOC(=O)CCCCCCCCC)CC(=O)N(CCOC(=O)CCCCCCCCC)CC(=O)N(CC(N)=O)CC(CC)CCCC)CC(CC)CCCC)C(=O)CNC(CO)CO (stereo not drawn) [Compound 16] (H-[N(CH(CH2OH)2)Gly][N(2-decanoyloxyethyl)Gly][N(2-decanoyloxyethyl)Gly][N(2-ethylhexyl)Gly][N(2-decanoyloxyethyl)Gly][N(2-decanoyloxyethyl)Gly][N(2-ethylhexyl)Gly]-NH2)
2. CCCCCCCCCC(=O)OCCCN(CC(=O)N(CCCOC(=O)CCCCCCCCC)CC(=O)N(CCCCCC)CC(=O)N(CCCOC(=O)CCCCCCCCC)CC(=O)N(CCCOC(=O)CCCCCCCCC)CC(=O)N(CCCCCC)CC(N)=O)C(=O)CN(C=O)CCCN1CCOCC1 [Compound 108] (For-[Gly(N-3-morpholinopropyl)][Gly(N-(3-decanoyloxypropyl))][Gly(N-(3-decanoyloxypropyl))][NHexGly][Gly(N-(3-decanoyloxypropyl))][Gly(N-(3-decanoyloxypropyl))][NHexGly]-NH2)

Outgoing:
[71.0, 95.3]

Incoming: Look up Particle Size for this compound: CCCCCCCCCCCCN(C=O)CC(=O)N(CCCOC(=O)CCCCCCC)CC(=O)N(CC(=O)N(CCCN1CCOCC1)CC(=O)N(CC(=O)N(CCCOC(=O)CCCCCCC)CC(=O)N(CCCCCCCCCCCC)CC(N)=O)CC(CC)CCCC)CC(CC)CCCC (stereo not drawn) [Compound 116] (For-[Gly(N-dodecyl)][Gly(N-(CH2)3O-octanoyl)][N(2-ethylhexyl)Gly][Gly(N-3-morpholinopropyl)][N(2-ethylhexyl)Gly][Gly(N-(CH2)3O-octanoyl)][Gly(N-dodecyl)]-NH2)
Outgoing: 71.4

###

System: luciferase
Assay: Luciferase expression after local (intramuscular or subcutaneous) administration of mRNA
Format: in vivo
Details: subcutaneous, mRNA 0.01 mpk, 6 hours
Non-standard residues stand in square brackets, D forms with d. Residues, ends and D or L forms follow the SMILES beside them. *: point of attachment. Gly(N-(3-decanoyloxypropyl)) = CCCCCCCCCC(=O)OCCCNCC(=O)O; N(3-lauroyloxypropyl)Gly = CCCCCCCCCCCC(=O)OCCCNCC(=O)O; N(2-decanoyloxyethyl)Gly = CCCCCCCCCC(=O)OCCNCC(=O)O; N(3-imidazol-1-ylpropyl)Gly = O=C(O)CNCCCn1ccnc1; Gly(N-3-morpholinopropyl) = O=C(O)CNCCCN1CCOCC1; N(2-ethylhexyl)Gly = CCCCC(CC)CNCC(=O)O; NDecylGly = CCCCCCCCCCNCC(=O)O; For = O=C*
Kindly supply the reported SC Flux values for the records listed here.
Give bare numbers, in p/s.

These recorded examples may help you get a feel for the data.
INSERT INTO assay_data (compound, quantity, unit_info, measured) VALUES
  ('CCCCCCCCCC(=O)OCCN(CC(=O)N(CCOC(=O)CCCCCCCCC)CC(=O)N(CC(=O)N(CCOC(=O)CCCCCCCCC)CC(=O)N(CCOC(=O)CCCCCCCCC)CC(=O)N(CC(N)=O)CC(CC)CCCC)CC(CC)CCCC)C(=O)CN(C=O)CCCN1CCOCC1 (centres unmarked) [Compound 76] (For-[Gly(N-3-morpholinopropyl)][N(2-decanoyloxyethyl)Gly][N(2-decanoyloxyethyl)Gly][N(2-ethylhexyl)Gly][N(2-decanoyloxyethyl)Gly][N(2-decanoyloxyethyl)Gly][N(2-ethylhexyl)Gly]-NH2)', 'SC Flux', 'p/s', '8.95E+07'),
  ('CCCCCCCCCCCC(=O)OCCCN(CC(=O)N(CC(=O)N(CC(=O)N(CCCn1ccnc1)CC(=O)N(CC(=O)N(CC(=O)N(CCCOC(=O)CCCCCCCCCCC)CC(=O)N(CC(N)=O)CC(CC)CCCC)Cc1ccco1)CC(CC)CCCC)CC(CC)CCCC)Cc1ccco1)C(=O)CN(C=O)CC(CC)CCCC (centres unmarked)', 'SC Flux', 'p/s', '6.16E+07');

Okay, here is my list. What is SC Flux for each of these?
1. CCCCCCCCCCCC(=O)OCCCN(C=O)CC(=O)N(CCCOC(=O)CCCCCCCCCCC)CC(=O)N(CC(=O)N(CCCN1CCOCC1)CC(=O)N(CC(=O)N(CCCOC(=O)CCCCCCCCCCC)CC(=O)N(CCCOC(=O)CCCCCCCCCCC)CC(N)=O)CC(CC)CCCC)CC(CC)CCCC (centres unmarked) [Compound 91] (For-[N(3-lauroyloxypropyl)Gly][N(3-lauroyloxypropyl)Gly][N(2-ethylhexyl)Gly][Gly(N-3-morpholinopropyl)][N(2-ethylhexyl)Gly][N(3-lauroyloxypropyl)Gly][N(3-lauroyloxypropyl)Gly]-NH2)
2. CCCCCCCCCC(=O)OCCCN(CC(=O)N(CC(=O)N(CC(=O)N(CCCOC(=O)CCCCCCCCC)CC(=O)N(CC(N)=O)CC(CC)CCCC)CC(CC)CCCC)CC(CC)CCCC)C(=O)CN(CC(CC)CCCC)C(=O)CNCCCn1ccnc1 (centres unmarked) [Compound 107] (H-[N(3-imidazol-1-ylpropyl)Gly][N(2-ethylhexyl)Gly][Gly(N-(3-decanoyloxypropyl))][N(2-ethylhexyl)Gly][N(2-ethylhexyl)Gly][Gly(N-(3-decanoyloxypropyl))][N(2-ethylhexyl)Gly]-NH2)
3. CCCCCCCCCCN(C=O)CC(=O)N(CCCOC(=O)CCCCCCCCC)CC(=O)N(CC(=O)N(CCCN1CCOCC1)CC(=O)N(CC(=O)N(CCCOC(=O)CCCCCCCCC)CC(=O)N(CCCCCCCCCC)CC(N)=O)CC(CC)CCCC)CC(CC)CCCC (centres unmarked) [Compound 117] (For-[NDecylGly][Gly(N-(3-decanoyloxypropyl))][N(2-ethylhexyl)Gly][Gly(N-3-morpholinopropyl)][N(2-ethylhexyl)Gly][Gly(N-(3-decanoyloxypropyl))][NDecylGly]-NH2)

Outgoing:
4.22E+07
7.41E+07
6.43E+08

###

System: firefly luciferase
Test: In vivo firefly luciferase expression after intravenous injection of fLuc mRNA delivery vehicles (IVIS imaging)
Design: species or system female Balb/c mice
Details: formulation recipe R7; fLuc mRNA, intravenous, Balb/c mice
Non-standard residues stand in square brackets, D forms with d. Residues, ends and D or L forms follow the SMILES beside them. *: point of attachment. N(2-decanoyloxyethyl)Gly = CCCCCCCCCC(=O)OCCNCC(=O)O; Gly(N-3-morpholinopropyl) = O=C(O)CNCCCN1CCOCC1; N(2-ethylhexyl)Gly = CCCCC(CC)CNCC(=O)O; For = O=C*
Quantity: Total Flux (luciferase expression) (p/s)
Give bare numbers, in p/s.

Incoming: Reported Total Flux (luciferase expression) for CCCCCCCCCC(=O)OCCN(CC(=O)N(CCOC(=O)CCCCCCCCC)CC(=O)N(CC(=O)N(CCOC(=O)CCCCCCCCC)CC(=O)N(CCOC(=O)CCCCCCCCC)CC(=O)N(CC(N)=O)CC(CC)CCCC)CC(CC)CCCC)C(=O)CN(C=O)CCCN1CCOCC1 (stereo not shown) [Compound 76] (For-[Gly(N-3-morpholinopropyl)][N(2-decanoyloxyethyl)Gly][N(2-decanoyloxyethyl)Gly][N(2-ethylhexyl)Gly][N(2-decanoyloxyethyl)Gly][N(2-decanoyloxyethyl)Gly][N(2-ethylhexyl)Gly]-NH2) : what is it?
Outgoing: 4.00E+09

###

Test system: firefly luciferase
Assay: In vivo firefly luciferase expression after intravenous injection of fLuc mRNA delivery vehicles (IVIS imaging)
Parameters: species or system female Balb/c mice
Settings: formulation recipe R5; fLuc mRNA, intravenous, Balb/c mice
Non-standard residues stand in square brackets, D forms with d. Residues, ends and D or L forms follow the SMILES beside them. *: point of attachment. Gly(N-(3-decanoyloxypropyl)) = CCCCCCCCCC(=O)OCCCNCC(=O)O; N(2-decanoyloxyethyl)Gly = CCCCCCCCCC(=O)OCCNCC(=O)O; Gly(N-3-morpholinopropyl) = O=C(O)CNCCCN1CCOCC1; N(2-ethylhexyl)Gly = CCCCC(CC)CNCC(=O)O; N(CH(CH2OH)2)Gly = O=C(O)CNC(CO)CO; For = O=C*
Quantity: Total Flux (luciferase expression) (p/s)
One number for each entry, in p/s.

Solved cases below.
INSERT INTO results (compound, system_name, quantity, unit_info, measured) VALUES
  ('CCCCCCCCCC(=O)OCCN(CC(=O)N(CCOC(=O)CCCCCCCCC)CC(=O)N(CC(=O)N(CCOC(=O)CCCCCCCCC)CC(=O)N(CCOC(=O)CCCCCCCCC)CC(=O)N(CC(N)=O)CC(CC)CCCC)CC(CC)CCCC)C(=O)CNC(CO)CO (stereo not drawn) [Compound 16] (H-[N(CH(CH2OH)2)Gly][N(2-decanoyloxyethyl)Gly][N(2-decanoyloxyethyl)Gly][N(2-ethylhexyl)Gly][N(2-decanoyloxyethyl)Gly][N(2-decanoyloxyethyl)Gly][N(2-ethylhexyl)Gly]-NH2)', 'firefly luciferase', 'Total Flux (luciferase expression)', 'p/s', '6.72E+08'),
  ('CCCCCCCCCC(=O)OCCN(CC(N)=O)C(=O)CN(CCOC(=O)CCCCCCCCC)C(=O)CN(CC(CC)CCCC)C(=O)CN(CCOC(=O)CCCCCCCCC)C(=O)CN(CCOC(=O)CCCCCCCCC)C(=O)CN(CC(CC)CCCC)C(=O)CNC(CO)CO (stereo not drawn) [Compound 105] (H-[N(CH(CH2OH)2)Gly][N(2-ethylhexyl)Gly][N(2-decanoyloxyethyl)Gly][N(2-decanoyloxyethyl)Gly][N(2-ethylhexyl)Gly][N(2-decanoyloxyethyl)Gly][N(2-decanoyloxyethyl)Gly]-NH2)', 'firefly luciferase', 'Total Flux (luciferase expression)', 'p/s', '1.28E+09');

Incoming: Missing value: Total Flux (luciferase expression), firefly luciferase, entry CCCCCCCCCC(=O)OCCCN(C=O)CC(=O)N(CCCOC(=O)CCCCCCCCC)CC(=O)N(CC(=O)N(CCCN1CCOCC1)CC(=O)N(CCCOC(=O)CCCCCCCCC)CC(=O)N(CCCOC(=O)CCCCCCCCC)CC(=O)N(CC(N)=O)CC(CC)CCCC)CC(CC)CCCC (stereo not drawn) [Compound 112] (For-[Gly(N-(3-decanoyloxypropyl))][Gly(N-(3-decanoyloxypropyl))][N(2-ethylhexyl)Gly][Gly(N-3-morpholinopropyl)][Gly(N-(3-decanoyloxypropyl))][Gly(N-(3-decanoyloxypropyl))][N(2-ethylhexyl)Gly]-NH2) . Fill in?
Outgoing: 2.67E+08
